- assayRemarks: yeast display, Sf9 membrane polyspecificity reagent, FACS + sequencing; frameworks hold sequencing errors
reportedMetric: polyreactivity (PSR sort gate)

Worked examples follow.
QVQLVESGGGLVQAGGSLRLSCAASGRIFLPYAMGWYGQAPGKERELFASISGSGGRTYYADSVKGRFTISRDHANNTVYLQMISQKPEDTAVYYCANRPVYAGYRFNYWGQGTQLTVSS ... high polyreactivity
QVQLVESGGGLVQAGGSLRLSCAASGRIFSGYAMGWYRQAPGKERELVAAITSGGSTNYADSVKGRFTISRDNAKNTVYLQMNSLKPEDTAVYYCAADSREVSTTAYYYWGQRTQVTVSS ... low polyreactivity
KVQLQESGGGLVQAGGSLRPSCAASGSITDGVPMGWDRQAPGEERELVATTVLGATTNYADSVKGRFTISRGNAKNTVYLLMNSLKPEETAVYYCAAPLRYDKGFSYWRQGTQVTVSS ... low polyreactivity
QVQLVESGGGLVQAGGSLRLSCAASGRTSLRNAMGWYRQAPGKEWELVATISQSGGRTHYADSVKGRFTISRENAKNTVYLQMNSLKPEDTAVYYCGAVARFSQYLYNYWGQGTQVTVSS ... low polyreactivity

Could you tell me which polyreactivity (PSR sort gate) is on file for "QVQLVESGGGLVQAGGSLRLICAASGLTYVSYAMGWYRQAPGKERELVAGITSGGGTTDYADSVKGRFTISRDNAKTTVYLQMNSLTPEDTAVYDCNARSVYDGFWYNYWGQGTQVTVSS" ?
high polyreactivity
